List of Ki values.
target: human adenosine A2A receptor (Homo sapiens, UniProt P29274); construct: expressed in transfected cells; host or cells: CHO cells, Semliki Forest virus expression system; membrane preparation; test: Human adenosine A2A receptor [3H]-SCH-58261 binding assay; details: recombinant human A2A in CHO cell membranes, [3H]-SCH-58261, Cheng-Prussoff; read-out: Ki hA2A
Sequence (P29274 whole entry): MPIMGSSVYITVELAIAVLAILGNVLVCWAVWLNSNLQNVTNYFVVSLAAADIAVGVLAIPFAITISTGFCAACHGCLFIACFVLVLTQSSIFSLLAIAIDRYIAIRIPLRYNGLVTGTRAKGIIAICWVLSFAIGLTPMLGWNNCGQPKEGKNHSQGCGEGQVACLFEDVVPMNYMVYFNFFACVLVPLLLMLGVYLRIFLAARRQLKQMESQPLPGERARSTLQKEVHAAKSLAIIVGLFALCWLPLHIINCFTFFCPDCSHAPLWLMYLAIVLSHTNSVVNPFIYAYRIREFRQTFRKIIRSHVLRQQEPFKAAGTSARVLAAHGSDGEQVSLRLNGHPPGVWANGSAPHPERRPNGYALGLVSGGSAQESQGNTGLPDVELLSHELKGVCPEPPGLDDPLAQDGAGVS
The answer consists of two parts: a number and, after it, its unit.

compound="NC(=O)C1CCCN(C(=O)c2cc(N)n3nc(-c4ccc(Br)o4)nc3c2)C1 (stereo not shown)" experimental_target="human adenosine A2A receptor (Homo sapiens, UniProt P29274)" value_reported="11 nM"
compound=C=CCN(C(=O)c1cc(N)n2nc(-c3ccccn3)nc2c1)C1CCCC1 experimental_target="human adenosine A2A receptor (Homo sapiens, UniProt P29274)" value_reported="31 nM"
compound="CN(C)C(=O)C1CCCN1C(=O)c1cc(N)n2nc(-c3ccc(Br)o3)nc2c1 (stereo not shown)" experimental_target="human adenosine A2A receptor (Homo sapiens, UniProt P29274)" value_reported="8.3 nM"

Return reported Ki; argument: COC[C@@H]1CC[C@@H](COC)N1C(=O)c1cc(N)n2nc(-c3ccc(Br)o3)nc2c1
118 nM

====

molecular target: human adenosine A2A receptor (Homo sapiens); construct: expressed in transfected cells; host or cells: CHO cells, Semliki Forest virus expression system; membrane preparation; assay: Human adenosine A2A receptor [3H]-SCH-58261 binding assay; settings: calculated ratio of the affinity to the HA1 receptor to the HA2a receptor
Measured Property: selectivity (A1/A2a)
# output: bare number, no unit

Field: example entries. Status: answers known.
compound=COc1ccc(-c2nc3cc(C(=O)N(Cc4ccccc4)Cc4ccccc4)cc(N)n3n2)s1 value_reported=5.8
compound=COc1ccc(-c2nc3cc(C(=O)N4CCCCC4)cc(N)n3n2)s1 value_reported=3.6
compound=CCCCCN(C)C(=O)c1cc(N)n2nc(-c3ccc(Br)o3)nc2c1 value_reported=16.8
compound=CCCCN(CC)C(=O)c1cc(N)n2nc(-c3ccc(Br)o3)nc2c1 value_reported=40.3
compound=CCCCN(Cc1ccccc1)C(=O)c1cc(N)n2nc(-c3ccccn3)nc2c1 value_reported=15.2
compound=COc1ccccc1CNC(=O)c1cc(N)n2nc(-c3ccc(Cl)o3)nc2c1 value_reported=3.0
compound=COc1ccccc1CNC(=O)c1cc(N)n2nc(-c3ccc[nH]3)nc2c1 value_reported=16.0
compound=CN(Cc1ccccc1)C(=O)c1cc(N)n2nc(-c3ccoc3)nc2c1 value_reported=8.4

Now for a further compound.
Return reported selectivity (A1/A2a); argument: CC1C=CC(C)N1C(=O)c1cc(N)n2nc(-c3nccs3)nc2c1 (stereo not drawn)
19.4

====

molecular target: human adenosine A2A receptor (Homo sapiens, UniProt P29274); construct: expressed in transfected cells; host or cells: CHO cells, Semliki Forest virus expression system; membrane preparation; assay: Human adenosine A2A receptor [3H]-SCH-58261 binding assay; settings: affinity to human adenosine A2A receptor; read-out: Ki HA2A
List of pKi values.
Scale for pKi: -log10 of concentration given in mol/L; no unit attached.

Field: example entries. Status: answers known.
compound=CCCCCCNC(=O)c1cc(N)n2nc(-c3ccc(OC)s3)nc2c1 value_reported=6.74
compound=Nc1cc(C(=O)N2CC=CCC2)cc2nc(-c3ccc(Cl)o3)nn12 value_reported=8.02
compound="CC1CCCC(C)N1C(=O)c1cc(N)n2nc(-c3ccc(Br)o3)nc2c1 (stereo not shown)" value_reported=6.83
compound=Nc1cc(C(=O)NC2CCC2)cc2nc(-c3cccnc3)nn12 value_reported=6.50
compound=Nc1cc(C(=O)NCc2ccccc2Br)cc2nc(-c3ccccc3O)nn12 value_reported=6.90
compound=COc1ccc(CNC(=O)c2cc(N)n3nc(-c4cccs4)nc3c2)cc1 value_reported=6.42
compound=Nc1cc(C(=O)NCc2ccccc2Cl)cc2nc(-c3cc(Br)co3)nn12 value_reported=7.95
compound=CC(C)N(Cc1ccccc1)C(=O)c1cc(N)n2nc(-c3ccc(Cl)o3)nc2c1 value_reported=8.77
compound=CCN(C(=O)c1cc(N)n2nc(-c3nccs3)nc2c1)C(C)C value_reported=7.18
compound=COc1ccccc1CNC(=O)c1cc(N)n2nc(-c3ccc(C)o3)nc2c1 value_reported=7.84

Now for a further compound.
Return reported pKi; argument: CCN(Cc1ccccc1)C(=O)c1cc(N)n2nc(-c3ccc(OC)s3)nc2c1
7.37

Where do the numbers come from? From patent US6506772B1.
